Test Readout: melting point (°C)

Known melting point results, listed for orientation:
                                   molecule  result_value
0  CSc1ccc(NC(=O)N(C)c2nc(Cl)c(S(=O)(=O)N(C)C)s2)cc1           194
1  CCOc1ccc(NC(=O)N(CCN2CCOCC2)c2nc(C)c(S(=O)(=O)N(C)C)s2)cc1           204
2  CCOc1ccc(NC(=O)N(C)c2nc(C)c(S(=O)(=O)NCC3CCCO3)s2)cc1 (centres unmarked)           168
3  CCOc1ccc(NC(=O)N(C)c2nc(C)c(S(=O)(=O)NCc3ccco3)s2)cc1           162

[I] CCOc1ccc(NC(=O)N(C)c2nc(Cl)c(S(=O)(=O)NC)s2)cc1
[II] CN(C(=O)Nc1ccc(Oc2ccccc2)cc1)c1nc(Cl)c(S(=O)(=O)N(C)C)s1
Which item exceeds the other in melting point, I or II ? Returns: label corresponding to the selected item.
I
(I: 183 °C, II: 127 °C)

----------
In this section, each of the compounds is paired with its reported melting point.

Known melting point results, listed for orientation:
                           substance_smiles   result_value
0  CNS(=O)(=O)c1sc(N(C)C(=O)Nc2ccc(N3CC=CC3)cc2)nc1C  208 to 209 °C
1  Cc1nc(N(C)C(=O)Nc2ccc(C3=NOCCO3)cc2)sc1S(=O)(=O)NC1CC1       > 225 °C
2  Cc1nc(N(C)C(=O)Nc2ccc(N3CC=CC3)cc2)sc1S(=O)(=O)NC1CC1  186 to 187 °C
3  Cc1nc(NC(=O)Nc2ccc(-c3ccccc3)cc2)sc1S(=O)(=O)N(C)C       > 250 °C

Turning now to a further record.
Param item = `CNS(=O)(=O)c1sc(N(C)C(=O)Nc2ccc(N3CCCCC3)cc2)nc1C` ; retrieve measured melting point.
157 to 160 °C (dec.)

----------
Test Readout: melting point (°C)

Known melting point results, listed for orientation:
>>> print(df.to_string())
                                   molecule   test_readout  unit_string  result_value
0  CCCN(C(=O)Nc1ccc(-c2ccccc2)cc1)c1nc(C)c(S(N)(=O)=O)s1  melting point           °C           144
1  COC(=O)c1ccc(N(C)C(=O)N(C)c2nc(Cl)c(S(=O)(=O)N(C)C)s2)cc1  melting point           °C           168
2  CNS(=O)(=O)c1sc(N(CCCN(C)c2ccccc2)C(=O)Nc2ccc(-c3ccccc3)cc2)nc1C  melting point           °C           148
3  CCOc1ccc(NC(=O)N(CCC2CCCN2C)c2nc(C)c(S(=O)(=O)NC)s2)cc1 (stereo not shown)  melting point           °C           141
4  CNS(=O)(=O)c1sc(N(CCN(C)C)C(=O)Nc2ccc(N3CCCC3)cc2)nc1C  melting point           °C           188

[1] CCOc1ccc(NC(=O)N(Cc2cccnc2)c2nc(C)c(S(=O)(=O)N(C)C)s2)cc1
[2] CCCOc1ccc(NC(=O)N(C)C2=CC(C)=C(S(=O)(=O)NCCOC)C2)cc1
Which item exceeds the other in melting point, 1 or 2 ? Returns: label corresponding to the selected item.
1
(1: 180 °C, 2: 97 °C)

----------
Test Readout: melting point (°C)

Known melting point results, listed for orientation:
                                   compound   test_readout  unit_string  result_value
0  Cc1nc(N(C)C(=O)Nc2ccc(N3CCOCC3)cc2)sc1S(=O)(=O)N(C)C1CC1  melting point           °C           198
1  CNS(=O)(=O)c1sc(N(CCN(C)C)C(=O)Nc2ccc(N3CCOCC3)cc2)nc1C  melting point           °C           196
2  CCCC(=O)Nc1cc(N2CCCC2)ccc1NC(=O)N(C)c1nc(C)c(S(=O)(=O)N(C)C)s1  melting point           °C           164

[1] Cc1nc(N(C)C(=O)Nc2ccc(N3CCOCC3)cc2)sc1S(N)(=O)=O
[2] CCOc1ccc(NC(=O)N(c2nc(C)c(S(=O)(=O)N(C)C)s2)C(C)CC)cc1 (stereo not shown)
I'm curious, which of these has a smaller melting point number: 1 or 2 ? Returns: label corresponding to the selected item.
2

----------
Test Readout: melting point (°C)

>>> print(df.to_string())
                                   compound  unit_string  result_value
0  CCOc1ccc(NC(=O)N(CC(C)C)c2nc(C)c(S(=O)(=O)N(C)C)s2)cc1           °C           173
1  CCCCOc1ccc(NC(=O)N(C)c2nc(Cl)c(S(=O)(=O)N(C)C)s2)cc1           °C           140
2  COCCN(C(=O)Nc1ccc(-c2ccccc2)cc1)c1nc(C)c(S(N)(=O)=O)s1 [151]           °C           167
3  Cc1nc(N(C)C(=O)Nc2ccc(N3CC=CC3)cc2)sc1S(=O)(=O)N(C)C           °C           185
4  Cc1nc(N(CC2CCCO2)C(=O)Nc2ccc(-c3ccccc3)cc2)sc1S(N)(=O)=O (stereo not drawn)           °C           165
5  CCCN(C(=O)Nc1ccc(N2CCOCC2)cc1)c1nc(C)c(S(=O)(=O)NC)s1           °C           179
6  Cc1nc(N(C)C(=O)Nc2ccc(-n3cccc3)cc2)sc1S(=O)(=O)NC1CC1           °C           194
7  CCOc1ccc(NC(=O)N(CCCNC(=O)OC(C)(C)C)c2nc(C)c(S(=O)(=O)NC)s2)cc1           °C           146

----------
Test Readout: melting point (°C)

In [3]: df
Out[3]:
                           substance_smiles   test_readout  unit_string  result_value
0  CN(C)C(=O)Nc1ccc(NC(=O)N(C)c2nc(Cl)c(S(=O)(=O)N(C)C)s2)cc1  melting point           °C           240
1  CCOc1ccc(NC(=O)N(CCOC)c2nc(C)c(S(=O)(=O)NC3CC3)s2)cc1  melting point           °C           164
2  CCOc1ccc(NC(=O)N(CCCCNC(=O)OC(C)(C)C)c2nc(C)c(S(=O)(=O)N(C)C)s2)cc1  melting point           °C           152
3  CCOc1ccc(NC(=O)N(C)c2ncc(S(=O)(=O)N(C)C)s2)cc1  melting point           °C           194
4  CCOc1ccc(NC(=O)N(C)c2nc(Cl)c(S(=O)(=O)N(C)C)s2)cc1  melting point           °C           215
5  CCc1nc(N(C)C(=O)Nc2ccc(-c3ccccc3)cc2)sc1S(=O)(=O)NC  melting point           °C           204
6  CCOc1ccc(NC(=O)N(CCNC(C)=O)c2nc(C)c(S(=O)(=O)N(C)C)s2)cc1  melting point           °C           184
7  CN(C(=O)Nc1ccc(-n2ccnn2)cc1)c1nc(Cl)c(S(=O)(=O)N(C)C)s1  melting point           °C           225
8  CNS(=O)(=O)c1sc(N(Cn2ccnc2)C(=O)Nc2ccc(-c3ccccc3)cc2)nc1C  melting point           °C           205
9  CN(C(=O)Nc1ccc(N2CCOCC2)c(F)c1)c1nc(Cl)c(S(=O)(=O)N(C)C)s1  melting point           °C           196

----------
Test Readout: melting point (°C)

                                    compound  result_value
 0  CCCN(C(=O)Nc1ccc(OCC)cc1)c1nc(Cl)c(S(=O)(=O)N(C)C)s1           132
 1  CCOc1ccc(NC(=O)N(CC2COc3ccccc3O2)c2nc(C)c(S(=O)(=O)NC3CC3)s2)cc1 (stereo not drawn)           170
 2  CNS(=O)(=O)c1sc(N(CCCN2CCCC2=O)C(=O)Nc2ccc(-c3ccccc3)cc2)nc1C           148
 3  CCOc1ccc(NC(=O)N(CCN(C)C)c2nc(C)c(S(=O)(=O)NC3CC3)s2)cc1           168
 4  Cc1nc(N(C)C(=O)Nc2ccc(N3CCOCC3)cc2)sc1S(=O)(=O)N(C)Cc1ccccn1           148
 5  Cc1nc(N(C)C(=O)Nc2ccc(N3CCOCC3)cc2)sc1S(=O)(=O)N(C)CCn1ccnn1           172
 6  CNS(=O)(=O)c1sc(N(CCOC)C(=O)Nc2ccc(-c3ccccc3)cc2)nc1C           170
 7  Cc1nc(N(C)C(=O)Nc2ccc(N3CCCC3)cc2)sc1S(N)(=O)=O           209
 8  CN(C(=O)Nc1ccc(N2CCOCC2)cc1)c1nc(Cl)c(S(=O)(=O)NC2CC2)s1           241
 9  CC(=O)N1CCc2c(cccc2Oc2ccc(NC(=O)N(C)c3nc(Cl)c(S(=O)(=O)N(C)C)s3)cc2)C1           163
10  CCCOc1ccc(NC(=O)N(CCN(C)C)c2nc(C)c(S(=O)(=O)NC)s2)cc1           165
11  CNS(=O)(=O)c1sc(N(CCCO)C(=O)Nc2ccc(N3CCOCC3)cc2)nc1C           181
12  CCOc1ccc(NC(=O)N(C)c2nc(C)c(S(=O)(=O)N(C)CC)s2)cc1           163
13  CCOc1ccc(NC(=O)N(C)c2nc(CC)c(S(=O)(=O)NC)s2)cc1           210
14  CCOc1ccc(NC(=O)N(CCCN)c2nc(C)c(S(=O)(=O)NC)s2)cc1.Cl           150
15  CCOc1ccc(NC(=O)N(C)c2nc(Cl)c(S(=O)(=O)NC3CC3)s2)cc1           183
